SYSTEM NAME: Protein kinase 7 (PK7), Plasmodium falciparum 3D7 (PF3D7_0213400)
PROTOCOL DETAILS: inhibition of Plasmodium PK7 catalytic activity – biochemical, TCAMS antimalarial set, Kinase-Glo luminescence (AID 1159587)
CONDITION CONTEXT: recombinant PfPK7, Kinase-Glo ATP depletion luminescence
The source made the active and inactive calls. No rule for the calls is given here.
MEASURED ATTRIBUTE: outcome

In the examples that follow, each entry is paired with its recorded outcome.
[[record]]
compound = "CC(C)C[C@H](NC(=O)c1ccc(OCCN2CCOCC2)cc1)C(=O)N[C@H](/C=N/NC(=O)OC(C)(C)C)CCc1ccccc1"
system_name = "Protein kinase 7 (PK7), Plasmodium falciparum 3D7 (PF3D7_0213400)"
result = "inactive"

[[record]]
compound = "CC1CC1C(=O)NC1CCN(CC2(c3ccccc3)CCCCC2)CC1 (stereo not given)"
system_name = "Protein kinase 7 (PK7), Plasmodium falciparum 3D7 (PF3D7_0213400)"
result = "inactive"

[[record]]
compound = "CCN(CCCN1CCCCC1)c1cc(C)nc(Nc2cc(Cl)ccc2C)n1"
system_name = "Protein kinase 7 (PK7), Plasmodium falciparum 3D7 (PF3D7_0213400)"
result = "inactive"

[[record]]
compound = "N#Cc1ccc(NC(=O)Nc2ccc(OC(F)(F)F)cc2)cc1"
system_name = "Protein kinase 7 (PK7), Plasmodium falciparum 3D7 (PF3D7_0213400)"
result = "inactive"


Exercise: Observed outcome on Protein kinase 7 (PK7), Plasmodium falciparum 3D7 (PF3D7_0213400) for "COc1cc(OC)c(OC)cc1CN1CCC2(CC1)CN(Cc1ccc(Cl)c(Cl)c1)C(=O)O2" , please.
Solution: inactive
